# target desc: EKC/KEOPS complex subunit TP53RK (Homo sapiens, UniProt Q96S44); note: in the data inactive means no Kd found up to 30 µM
# Sequence (Q96S44 whole entry, one chain of several): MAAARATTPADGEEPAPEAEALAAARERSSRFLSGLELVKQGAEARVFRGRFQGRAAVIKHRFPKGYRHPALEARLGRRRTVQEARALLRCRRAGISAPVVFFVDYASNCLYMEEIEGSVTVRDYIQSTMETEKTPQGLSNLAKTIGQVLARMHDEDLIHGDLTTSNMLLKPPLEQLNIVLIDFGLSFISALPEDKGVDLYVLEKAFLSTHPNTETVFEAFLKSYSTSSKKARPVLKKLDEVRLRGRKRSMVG
Activity calls are given as the source filed them.
Outcome codes: true (active), false (inactive)

{"compound": "COc1cc(Nc2ncc(F)c(Nc3ccc4c(n3)N(COP(=O)(O)O)C(=O)C(C)(C)O4)n2)cc(OC)c1OC [FOSTAMATINIB]", "discrete label": "false"}
{"compound": "Cn1c(=O)c(F)c(Nc2ccc(I)cc2F)c2c(=O)n(C[C@@H](O)CO)cnc21 [TAK-733]", "discrete label": "false"}
{"compound": "CC[C@@](C)(Nc1ccnc(-c2c[nH]c3ncccc23)n1)C(=O)NCC(F)(F)F [DECERNOTINIB]", "discrete label": "true"}
{"compound": "C#Cc1cccc(Nc2ncnc3cc4c(cc23)OCCOCCOCCO4)c1 [ICOTINIB]", "discrete label": "false"}
{"compound": "CN(c1ncccc1CNc1nc(Nc2ccc3c(c2)CC(=O)N3)ncc1C(F)(F)F)S(C)(=O)=O [PF-00562271]", "discrete label": "false"}
{"compound": "CCc1nc(C(N)=O)c(Nc2ccc(N3CCC(N4CCN(C)CC4)CC3)c(OC)c2)nc1NC1CCOCC1 [GILTERITINIB]", "discrete label": "true"}
{"compound": "CC(C)CC(=O)Nc1[nH]nc2c1CN(C(=O)C1CCN(C)CC1)C2(C)C [PHA-793887]", "discrete label": "false"}
{"compound": "O=S(=O)(c1cccc2cnccc12)N1CCCNCC1 [FASUDIL]", "discrete label": "false"}
{"compound": "C=CCn1c(=O)c2cnc(Nc3ccc(N4CCN(C)CC4)cc3)nc2n1-c1cccc(C(C)(C)O)n1 [ADAVOSERTIB]", "discrete label": "false"}
{"compound": "CCN(CCCOc1ccc2c(Nc3cc(CC(=O)Nc4cccc(F)c4)n[nH]3)ncnc2c1)CCOP(=O)(O)O [BARASERTIB]", "discrete label": "false"}

###

# target desc: Tyrosine-protein kinase JAK1 (Homo sapiens, UniProt P23458); note: in the data inactive means no Kd found up to 30 µM
# Sequence (P23458 whole entry): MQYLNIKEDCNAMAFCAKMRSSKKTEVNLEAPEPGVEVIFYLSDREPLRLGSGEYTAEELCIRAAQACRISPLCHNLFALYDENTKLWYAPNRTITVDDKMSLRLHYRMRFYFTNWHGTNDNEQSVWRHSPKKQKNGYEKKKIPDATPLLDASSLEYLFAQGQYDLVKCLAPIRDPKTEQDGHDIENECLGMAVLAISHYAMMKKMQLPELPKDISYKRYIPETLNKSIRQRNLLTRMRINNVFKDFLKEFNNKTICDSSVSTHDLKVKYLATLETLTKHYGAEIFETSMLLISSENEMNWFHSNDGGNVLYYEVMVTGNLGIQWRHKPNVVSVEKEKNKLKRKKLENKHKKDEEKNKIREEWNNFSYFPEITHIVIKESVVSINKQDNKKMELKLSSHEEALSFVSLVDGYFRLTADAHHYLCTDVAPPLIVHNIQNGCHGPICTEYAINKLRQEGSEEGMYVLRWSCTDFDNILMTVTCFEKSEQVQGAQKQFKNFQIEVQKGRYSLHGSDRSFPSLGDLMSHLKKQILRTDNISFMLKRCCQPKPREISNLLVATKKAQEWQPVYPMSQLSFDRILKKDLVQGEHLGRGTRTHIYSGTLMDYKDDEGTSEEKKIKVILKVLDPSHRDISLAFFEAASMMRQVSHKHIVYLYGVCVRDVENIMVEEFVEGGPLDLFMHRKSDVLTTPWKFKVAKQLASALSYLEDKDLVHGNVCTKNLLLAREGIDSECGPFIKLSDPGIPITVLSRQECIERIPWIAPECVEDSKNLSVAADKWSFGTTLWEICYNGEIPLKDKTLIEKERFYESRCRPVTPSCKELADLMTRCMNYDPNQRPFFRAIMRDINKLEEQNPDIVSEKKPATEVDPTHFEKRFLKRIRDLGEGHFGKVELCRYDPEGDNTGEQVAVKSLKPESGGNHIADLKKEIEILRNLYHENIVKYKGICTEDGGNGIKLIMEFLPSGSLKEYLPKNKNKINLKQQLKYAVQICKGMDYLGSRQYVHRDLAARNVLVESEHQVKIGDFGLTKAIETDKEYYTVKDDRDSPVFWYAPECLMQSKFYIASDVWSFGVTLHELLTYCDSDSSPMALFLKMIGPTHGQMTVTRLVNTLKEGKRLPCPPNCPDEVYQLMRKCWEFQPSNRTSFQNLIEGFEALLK
Active and inactive are the calls of the source.
Classes used: Yes for active, No for inactive

{"line notation": "O=C(NOC[C@H](O)CO)c1ccc(F)c(F)c1Nc1ccc(I)cc1F", "discrete label": "No"}
{"line notation": "CCN(CCCOc1ccc2c(Nc3cc(CC(=O)Nc4cccc(F)c4)n[nH]3)ncnc2c1)CCOP(=O)(O)O", "discrete label": "No"}
{"line notation": "Cc1c(Cn2c(C)nc3c(C(=O)O)cc(N4CCOCC4)cc32)cccc1C(F)(F)F", "discrete label": "No"}
{"line notation": "CN1CCN(c2nc(C3=C(c4c[nH]c5ccccc45)C(=O)NC3=O)c3ccccc3n2)CC1", "discrete label": "No"}
{"line notation": "S=C(NCc1ccc2c(c1)OCO2)N1CCN(c2ncnc3c2oc2ccccc23)CC1", "discrete label": "No"}
{"line notation": "CCc1nc(C(N)=O)c(Nc2ccc(N3CCC(N4CCN(C)CC4)CC3)c(OC)c2)nc1NC1CCOCC1", "discrete label": "No"}
{"line notation": "CNC(=O)c1cccc(-c2ccc3c(N4CCOC[C@@H]4C)nc(N4CCOC[C@@H]4C)nc3n2)c1", "discrete label": "No"}
{"line notation": "COCCN1CCN(Cc2ccc(-c3n[nH]c4c3C(=O)c3c(NC(=O)NN5CCOCC5)cccc3-4)cc2)CC1", "discrete label": "Yes"}
{"line notation": "CNC(=O)c1cc(COc2nnc(Nc3ccc(Cl)cc3)c3ccoc23)ccn1", "discrete label": "No"}
{"line notation": "O=C(Nc1ccc(OC(F)(F)F)cc1)c1sccc1NCc1ccnc2ccccc12", "discrete label": "No"}
{"line notation": "COc1cc2ncnc(Nc3ccc(O)cc3)c2cc1OC", "discrete label": "No"}
{"line notation": "O=C(NC[C@H](O)CO)c1ccncc1Nc1ccc(I)cc1F", "discrete label": "No"}
{"line notation": "C=CC(=O)Nc1cc(Nc2nccc(-c3cn(C)c4ccccc34)n2)c(OC)cc1N(C)CCN(C)C", "discrete label": "No"}
